# Measurement target: T1, murine TIM-3 extracellular domain protein with hFc tag (mTIM-3-hFc) (mouse, UniProt Q8VIM0 29-191)
# T1 construct: also called mouse TIM-3 extracellular domain protein; not shown: human IgG Fc fragment (hFc) of the pCpC vector
# T1 chain: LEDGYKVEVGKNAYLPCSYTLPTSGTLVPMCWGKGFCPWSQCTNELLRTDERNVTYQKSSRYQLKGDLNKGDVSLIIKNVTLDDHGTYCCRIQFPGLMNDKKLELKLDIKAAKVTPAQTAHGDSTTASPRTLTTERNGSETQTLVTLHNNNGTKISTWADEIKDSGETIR
# Test: ELISA, coated mouse TIM-3 ECD protein, 66.667 nM antibody
Measurement type: OD450
API doc: respond with a numeric literal and nothing else, no unit.

Consider the reported OD450 for these binders:
INSERT INTO results (binder, measurement_type, value_reported) VALUES
  ('57F4E5 fully human TIM-3 antibody (human IgG4, kappa) (antibody, V domains shown) VH: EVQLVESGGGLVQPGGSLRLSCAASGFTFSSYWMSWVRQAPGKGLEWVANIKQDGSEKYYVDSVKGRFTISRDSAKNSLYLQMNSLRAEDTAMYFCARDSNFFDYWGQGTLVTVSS VL: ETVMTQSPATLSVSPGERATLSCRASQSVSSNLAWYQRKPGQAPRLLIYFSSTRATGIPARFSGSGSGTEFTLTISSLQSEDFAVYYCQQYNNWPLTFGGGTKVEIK', 'OD450', 1.55),
  ('34B6D8 fully human TIM-3 antibody (human IgG4, kappa) (antibody, V domains shown) VH: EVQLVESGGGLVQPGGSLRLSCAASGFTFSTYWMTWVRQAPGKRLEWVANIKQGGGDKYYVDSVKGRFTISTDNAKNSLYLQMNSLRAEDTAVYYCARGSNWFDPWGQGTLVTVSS VL: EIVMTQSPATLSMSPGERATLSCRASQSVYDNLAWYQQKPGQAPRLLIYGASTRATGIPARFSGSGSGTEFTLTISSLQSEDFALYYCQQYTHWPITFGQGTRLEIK', 'OD450', 1.38);

Please look at the following binder next.
q: Look at this binder and give its reported OD450. 7A4F10 fully human TIM-3 antibody (human IgG4, kappa) (antibody, V domains shown) VH: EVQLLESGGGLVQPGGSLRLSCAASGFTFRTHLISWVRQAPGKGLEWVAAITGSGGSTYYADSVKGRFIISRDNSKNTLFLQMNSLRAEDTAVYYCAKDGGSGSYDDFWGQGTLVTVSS VL: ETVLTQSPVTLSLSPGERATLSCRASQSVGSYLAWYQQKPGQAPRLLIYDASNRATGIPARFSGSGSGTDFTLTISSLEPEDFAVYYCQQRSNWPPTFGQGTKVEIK
a: 0.99
